Test system: K4 kissing-loop RNA reporter;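 note: bound reporter read as fluorescence of individual clusters on recovered sequencing chips by microscopy, with normalized cluster intensities fitted with a binding model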
METHOD_NOTES: apparent KD of K4 kissing-loop reporter; higher = weaker reporter binding
CONDITION_PARAMETERS: Eterna round: R107; input ligand: FMN 200 uM
MEASURED_METRIC: apparent KD of K4 kissing-loop reporter (nM)
One number for each entry, in nM.

1) CGCGCGGGUUUGAGAGGGUUUGCGCGAAGUGAGGAUAUUUAGGGAGAAAGAAGGCACUAUAAAAUAUAGUGAUGUUAUAUAAGGG [SSFMNA.I] = 627
2) UGGAGUUGACGAAAAGUCAACUCCUGAGAAGGAGCGGACGAAAGUCCAGGUAGGUCGCUCACUACCAGUGAUGUUGGUACUAAAA = 160
3) UGGAGUUGACGAAAAGUCAACUCCUGAGAUACCAGUGACGAAAGUCACCCUUGGCAGCUCACUGCCAGUGAUGUUGGUUUAUAAA [#OpenEnded 2] = 167
4) UGAUCACAGUGAUGUUGUGGCAAAAGUGAUACCAGCCGUGUACGAGGCCCUUGGCAGCACCAGGGCUGUACGUCGUUAGAUCCGG [theeternabot_exclusion_KL_Theo_A_33] = 211

Parameters: items (list). Returns: apparent KD of K4 kissing-loop reporter for each item.
1. GACUGGUUAACGAGUGAUGUUCGAUGGGAAGGAGCGCGCAGAAGUGCAGGUAGGUCGCCCUAUAACCAGGAAAUGGCUGGAUUAU [3.)]
2. UGACAUUGCUCAGAUACCAGACUUGAGGAACACCCAAGUGCCAAAUAAACGUACAUAAAAGUCCCUUGGCAGCUGAGCAAUGUCU [TheoBX 11]
3. CGCAGUGAUGUUGCUAUUAUUCUUGGUUAACGAGGACCGGUACGGCCGCCACUCGAUGUCUGUCUAGUCCAGUGUUUUUUUGAGU [whbob_EX_Tryp_A_t8]
4. AAUAAAAUCACGGCCGCCACUGAUUUCCAUAUUAGGAGUGAUGUUCCUAUGACUAUAUAAUUUAACAGGACCGGGUGAAUAUUUA [JR_ExcTryptoB_Sub012]

Output:
1: 205; 2: 66; 3: 351; 4: 110

Parameters: items (list). Returns: apparent KD of K4 kissing-loop reporter for each item.
1. AAAACUAUCAGAAGGAGCGUGGAAUAUUCAUCUAUAUUUAAUACGAGUGAUGUUCGUAAUUCACAGGUAGGUCGCUGAUCAAUAA [JR_ExcArginiB_Sub007]
2. AGACUACUGACAGGAUAUAACAUACUAGCUCGUAUACCAAAGGUAUACGAGCACCUUCUAGUGAUGUUAGAAGGGUCGGUAGUCA [Omei KL FMN B Exc B v2]
3. AGUGAUAUAUGAGGAUAUGGGUUUGUUAAUGAGUUUGUUUUAGUGUUGUUUGGUUAGUGAUGUUAUUUAGAAGGCGUGAGUGAUG [vxxexmullin]
4. CCCUCACGAGUGAUGUUCGUAGGGUACAGUCAGGAUAUCAUGCGGUUGAGAAGGGACAGAGAAGGCGGCGACGGGUUGCUUAUCU [Atenus]

Output:
[214, 412, 130, 206]

Parameters: items (list). Returns: apparent KD of K4 kissing-loop reporter for each item.
1. CCAAGGUGCUUCUGUUCAGUGAUGUUGGUACGAGGACCGGUACGGCCGCCACUCGCCGUACAAUCGCUAGUUAAUCAUUGGCAAG [theeternabot_exclusion_KL_Trp_A_40]
2. GGAUAGGAGAGAGGAUAUGGGCUAGGCAAGAAUAACUUGUCUAGCAAAUCCAUGAGGAGUGAUGUUCCAGAAGGCUCUCCUAUCG [FmnBX 1 G9+C77]
3. UGACGUUUGGGAAGGAGCGGAAUGUAAUACGGAACGCGUGGAGAUGCAGUGAUGUUGCAGAUCCAGGUAGGUCGCCCAAGGGACG [Zainat]

Output:
667
996
91.4

Parameters: items (list). Returns: apparent KD of K4 kissing-loop reporter for each item.
1. AAGGGCUAGGCGGCCGCCACUGGUCGUGUACACAUACAAACCAGUGAUGUUGGUAUUGUAUGCGACAGGACCGGGCCUAGCCGAA [Exclusion - Tryptophan B (Freestyle 28)]
2. AGUACGGACGCGGCCGCCACUCAGAAGAAGACGGUAGUGAUGUUACUGAUGGUGAGAACAAUAAAGAGGACCGGGUGUCGUGCAA [#06 K4 Tryptophan B Same State]

Output:
1: 280; 2: 324

====

Tested on: MS2 coat protein
METHOD_NOTES: apparent KD of MS2 coat protein; designed switch direction (-1 OFF switch, 1 ON switch): -1; higher = weaker reporter binding
CONDITION_PARAMETERS: Eterna round: R95; input ligand: FMN 200 uM
Threshold rule: apparent KD of MS2 coat protein greater than or equal to 80 nM is label 1; below that, label 0.

1) GUAAAGUGAGGAUAUGGUAAAGUAAUUAUUUAGUAAUUAAUCCAGAAGGCACAUGAGGAUCACCCAUGUAAAUG [Mat - Exclusion 4 - D96] (puzzle: Exclusion 4) = label 0
2) GCUCGUACGGAGGAUAUAGAUUUCGGAAACCGACUAGAAGGCCGAACAUGAGGAUCACCCAUGUGAUUUAUAUC [Gesozarequ] (puzzle: Exclusion 6) = label 0
3) AGGAAUGAAGGAUAUACAUGAGGAUCACCCAUGUAAAAAAAGUCGUUUAUUGUGUCAUGUAGAAGGUCAAGAAG [JR_Exclusion3_Sub002] (puzzle: Exclusion 3) = label 0
4) UAUUAACAAGCUAGAUCCCACAUGAGGAUCACCCAUGUGCUCGUCUUAUAAGGUACUGUGACGAAAGUCACGGUACC [Sensor 3, v1 - 78] (puzzle: Sensor v3, turn-off variant 1) = label 0
5) AAGAAGAUAGGAUAUACGAGGAGAGGAGAGAAGAGGUGAGGACAUGAGGAUCACCCAUGUAGAAGGAUCAGGAA [JR_Exclu2_Sub063] (puzzle: Exclusion 2) = label 1

Input: In plain terms: is recorded apparent KD of MS2 coat protein at least 80 nM for UUAAUGUGAGGAUAUGGUAAAGAUAGAAUGAUGAAAGAACUCCAGAAGGCACAUGAGGAUCACCCAUGUAGAUG [Mat - Exclusion 4 - Mod of JL - D28] (puzzle: Exclusion 4) ?
Output: label 0

Input: In plain terms: is recorded apparent KD of MS2 coat protein at least 80 nM for GAGUGACAUGAGGAUCACCCAUGUGAGGAUAUCGGACGGACCAAAUUAACAAUAAUUGCGAGAAGGCGCAUCGG [Exclusion 1 V15] (puzzle: Exclusion 1) ?
Output: label 0

Input: In plain terms: is recorded apparent KD of MS2 coat protein at least 80 nM for GAUUAUGCGAGCUUUAGGGACAUGAGGAUCACCCAUGUUCGUCUUAUUGGUCUAGGUACACUAACAUACCUAAAUCU [JMF 19] (puzzle: Sensor v3, turn-off variant 1) ?
Output: label 0

Input: In plain terms: is recorded apparent KD of MS2 coat protein at least 80 nM for UUAUUUCAAGCAAGAUCCUACAUGAGGAUCACCCAUGUGCUCGUCUUAUAAGGUACAGUGACGAAAGUCACAGUACC [Sensor 3, v1 - 000] (puzzle: Sensor v3, turn-off variant 1) ?
Output: label 1

Input: In plain terms: is recorded apparent KD of MS2 coat protein at least 80 nM for AAAUAAUCAGGAUAUACAUGAGGAUCACCCAUGUACCUCUUGUACGAGGGCCGCCCGUGUAGAAGGGAUGACAA [Arralara] (puzzle: Exclusion 3) ?
Output: label 0

Input: In plain terms: is recorded apparent KD of MS2 coat protein at least 80 nM for UCAAGUAUGUAGGAUAUCGAUGUCCUUGGACAUCGAGAAGGACGUACAUGAGGAUCACCCAUGUAACUUGCAUG [Exclusion 6 - B - 10:e] (puzzle: Exclusion 6) ?
Output: label 1

Input: In plain terms: is recorded apparent KD of MS2 coat protein at least 80 nM for AGUAACUAUCACGAAAGUGAUAGUUACAACAGGUGAUAAACAUGAGGAUCACCCAUGUCCUCAUUUGCUCGUCUUAU [Sensor 3 - 11] (puzzle: Sensor v3, turn-off variant 2) ?
Output: label 1

Input: In plain terms: is recorded apparent KD of MS2 coat protein at least 80 nM for GAAGAGACAGGAUAUACAUGAGGAUCACCCAUGUGAGGAGGUUGGAAGCGGAGAAGGUGUAGAAGGGUCAAAGA [JR_Exclu3_Sub023] (puzzle: Exclusion 3) ?
Output: label 0

Input: In plain terms: is recorded apparent KD of MS2 coat protein at least 80 nM for AUAACAAGCUUUUUUUUCGUCGUAUAUGACGCUCGAGUCACAUGAGGAUCACCCAUGUCUUCCUGUUUGAUUGUUGA [JR_SV3TOV2_Sub057] (puzzle: Sensor v3, turn-off variant 2) ?
Output: label 1
